system: MCF7 cells; test: In vitro cell proliferation assays (Examples 902 and 903), MCF7; type: cell-based; conditions: Homo sapiens, MCF7, Table 1a, read-out: ER-alpha MCF7 HCS (EC50)
Listing: EC50 of selected compounds
Entry rule: numbers only, all in pM.

{"columns": ["compound", "subject-of-test", "EC50, pM"],
 "data": [
  ["C[C@@H]1Cc2c([nH]c3c(F)cccc23)[C@@H](c2c(F)cc([C@H](O)C3CN(CCCF)C3)cc2F)N1CC(F)(F)CO (single isomer, unassigned) [Compound 133]", "MCF7 cells", 83],
  ["C[C@@H]1Cc2c([nH]c3ccc(F)cc23)[C@@H](c2c(F)cc([C@@H](O)C3CN(CCCF)C3)cc2F)N1CC(F)(F)CO (single isomer, unassigned) [Compound 115]", "MCF7 cells", 65],
  ["C[C@@H]1Cc2c([nH]c3ccccc23)[C@@H](c2c(F)cc([C@H](O)C3CN(CCCF)C3)cc2F)N1CC(F)F (single isomer, unassigned) [Compound 121]", "MCF7 cells", 68],
  ["C[C@@H]1Cc2c([nH]c3cc(F)ccc23)[C@@H](c2c(F)cc([C@H](O)C3CN(CCCF)C3)cc2F)N1CC(F)(F)CO (single isomer, unassigned) [Compound 142]", "MCF7 cells", 65],
  ["C[C@@H]1Cc2c([nH]c3ccccc23)[C@@H](c2c(F)cc([C@H](O)C3CN(CCCF)C3)cc2F)N1CC(F)(F)F [Compound 119]", "MCF7 cells", 85],
  ["C[C@@H]1Cc2c([nH]c3ccccc23)[C@@H](c2ccc([C@H](O)C3CN(CCCF)C3)cc2)N1CC(F)(F)CO [Compound 127]", "MCF7 cells", 71],
  ["C[C@@H]1Cc2c([nH]c3ccccc23)[C@@H](c2ccc(C(O)C3CN(CCCF)C3)cc2)N1CC(F)(F)CO (stereo partly shown) [Compound 117]", "MCF7 cells", 66],
  ["C[C@@H]1Cc2c([nH]c3ccccc23)[C@@H](c2c(F)cc([C@H](O)C3CN(CCCF)C3)cc2F)N1C[C@@H](F)CO (single isomer, unassigned) [Compound 137]", "MCF7 cells", 74],
  ["C[C@@H]1Cc2c([nH]c3ccccc23)[C@@H](c2c(F)cc(C(O)C3CN(CCCF)C3)cc2F)N1C[C@@](C)(F)CO (stereo partly shown) [Compound 107]", "MCF7 cells", 107]
]}

Moving on to the next compound.
Given the compound C[C@@H]1Cc2c([nH]c3ccccc23)[C@@H](c2c(F)cc([C@H](O)C3CN(CCCF)C3)cc2F)N1CC(C)(C)F [Compound 111] , write its reported EC50. 66

The reported numbers originate from patent US20170362228A1.
